molecular target: human B1R receptor (CHO K1 cells stably transfected with the human B1R gene) (Homo sapiens, UniProt P46663); construct: expressed in transfected cells; host or cells: CHO K1 cells (Chinese hamster ovary), stably transfected; test: Functional study on the bradykinin receptor 1 (B1R), Ca2+ fluorescence (Fluo-4) FLIPR/Novostar assay, hB1R cells; assay type: cell-based; details: CHO-K1, read-out: % Inhibition (h-B1R) at 10 μM
Sequence (P46663 whole entry): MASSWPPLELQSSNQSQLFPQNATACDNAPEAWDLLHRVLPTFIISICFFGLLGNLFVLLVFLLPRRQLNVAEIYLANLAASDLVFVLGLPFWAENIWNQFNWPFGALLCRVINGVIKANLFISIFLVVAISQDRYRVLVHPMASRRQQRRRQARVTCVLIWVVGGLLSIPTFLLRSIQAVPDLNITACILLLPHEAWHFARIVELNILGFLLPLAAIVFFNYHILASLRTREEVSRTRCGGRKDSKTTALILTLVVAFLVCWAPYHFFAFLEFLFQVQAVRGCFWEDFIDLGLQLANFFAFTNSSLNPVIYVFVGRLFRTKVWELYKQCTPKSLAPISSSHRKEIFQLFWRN
For each record, write down the corresponding inhibition at 10 µM.
Please respond with the number in % and leave the unit unwritten.

Query string: Entry Cc1cc(N2CCC(N(C)C(=O)c3ccc4c(c3)C(NC(=O)N(C)c3ccccc3Cl)CC4)CC2)cc(C)n1 (stereo not drawn) [CC_H-142] : reported inhibition at 10 µM = ?
Result string: 100

Query string: Next compound: CN(C(=O)c1ccc2c(c1)C(NC(=O)c1cccc(Cl)c1Cl)CC2(C)C)C1CCN(c2ccncc2)CC1 (stereo not drawn) [CC_H-19]
Result string: 100

Query string: Next compound: Cc1cc(N2CCC(N(C)C(=O)c3ccc4c(c3)C(NS(=O)(=O)c3c(Cl)cccc3C(F)(F)F)CC4)CC2)cc(C)n1 (stereo not drawn) [CC_H-111]
Result string: 100

Query string: Next compound: CN(C(=O)c1ccc2c(c1)C(NC(=O)c1sccc1Cl)CCO2)C1CCN(c2ccncc2)CC1 (stereo not drawn) [CC_H-40]
Result string: 95

Query string: Next compound: CN(C(=O)c1ccc2c(c1)C(NC(=O)c1ccccc1Cl)CC2)C1CCN(c2ccc3cnccc3c2)CC1 (stereo not drawn) [CC_H-75]
Result string: 99

Query string: Next compound: CN(C(=O)c1ccc2c(c1)C(NC(=O)c1cc(F)ccc1Cl)CC2)C1CCN(c2ccncc2)CC1 (stereo not drawn) [CC_H-26]
Result string: 100

Query string: Next compound: CN(C(=O)c1ccc2c(c1)C(NC(=O)CCC1CCCC1)CCC2)C1CCN(c2ccncc2)CC1 (stereo not drawn) [CC_H-06]
Result string: 100

Query string: Next compound: CN(C(=O)c1ccc2c(c1)C(NC(=O)c1cccc(Cl)c1Cl)CCC2)C1CCN(c2ccncc2)CC1 (stereo not drawn) [CC_H-03]
Result string: 99

Query string: Next compound: CC(C)CC(=O)NC1CCOc2ccc(C(=O)N(C)C3CCN(c4ccncc4)CC3)cc21 (stereo not drawn) [CC_H-39]
Result string: 99

Query string: Next compound: O=C(NCCC1CCN(c2ccncc2)CC1)c1ccc2c(c1)C(NC(=O)C1CCCCC1)CC2 (stereo not drawn) [CC_H-116]
Result string: 92

Query string: Next compound: CC(C)CC(=O)N(C)C1CCc2ccc(C(=O)N(C)C3CCN(c4ccncc4)CC3)cc21 (stereo not drawn) [CC_H-28]
Result string: 99

Query string: Next compound: CN(C(=O)c1ccc2c(c1)C(N(C)S(=O)(=O)Cc1ccccc1C(F)(F)F)CC2)C1CCN(c2ccncc2)CC1 (stereo not drawn) [CC_H-46]
Result string: 99

Query string: Next compound: CN(C(=O)c1ccc2c(c1)C(NS(=O)(=O)c1c(Cl)cccc1C(F)(F)F)CC2(C)C)C1CCN(c2ccncc2)CC1 (stereo not drawn) [CC_H-93]
Result string: 100

Query string: Next compound: CN(C(=O)c1ccc2c(c1)C(NC(=O)C(C)(C)c1ccccc1Cl)CC2(C)C)C1CCN(c2ccncc2)CC1 (stereo not drawn) [CC_H-95]
Result string: 100

Query string: Next compound: Cc1cc(N2CCC(N(C)C(=O)c3ccc4c(c3)C(N(C)C(=O)c3cc(F)ccc3Cl)CC4)CC2)cc(C)n1 (stereo not drawn) [CC_H-82]
Result string: 100
